- Tested on: human P-glycoprotein (PGP)
- protocol-description: Bidirectional digoxin Pgp transport across MDR-MDCK monolayers
- experimental-conditions: dog, MDCK-MDR1, pH 7.4, Pgp transport, Papp B->A, shipped, 0.5% agarose medium apical only, Table 5 upper block c1; assayed 7 D
observable: Papp B→A at 120 min, 10 µM (×10⁻⁶ cm/s)
// return numeric value only (unit: ×10⁻⁶ cm/s, not printed)

Q: Return reported Papp B→A at 120 min, 10 µM. Input compound: C[C@H]1O[C@@H](O[C@H]2[C@@H](O)C[C@H](O[C@H]3[C@@H](O)C[C@H](O[C@H]4CC[C@@]5(C)[C@H](CC[C@@H]6[C@@H]5C[C@@H](O)[C@]5(C)[C@@H](C7=CC(=O)OC7)CC[C@]65O)C4)O[C@@H]3C)O[C@@H]2C)C[C@H](O)[C@@H]1O
Result: 5.24

----------
- Tested on: P-gp
- protocol-description: Bidirectional digoxin Pgp transport across MDCK monolayers
- experimental-conditions: dog, MDCK-MDR1, pH 7.4, Pgp transport, Papp A->B, Table 9 shipped, 0.75% agarose media basolateral only; assayed day 10
observable: Papp A→B at 2 h, 10 µM (×10⁻⁶ cm/s)
// return numeric value only (unit: ×10⁻⁶ cm/s, not printed)

Q: Return reported Papp A→B at 2 h, 10 µM. Input molecule: C[C@H]1O[C@@H](O[C@H]2[C@@H](O)C[C@H](O[C@H]3[C@@H](O)C[C@H](O[C@H]4CC[C@@]5(C)[C@H](CC[C@@H]6[C@@H]5C[C@@H](O)[C@]5(C)[C@@H](C7=CC(=O)OC7)CC[C@]65O)C4)O[C@@H]3C)O[C@@H]2C)C[C@H](O)[C@@H]1O [Digoxin, digoxin]
Result: 0.04
